The origin of these recorded values is PubChem BioAssay (NCI).

Tested on: M14 melanoma
Experiment: NCI tumour cell line growth inhibition, 48 h
Kind request: treat 30 µM as inclusive, so TGI at 30 µM or higher is Satisfied, anything lower is Not satisfied.

API: above_or_equal(metric=TGI, cutoff=30 µM) for item `COc1ccc2c(c1)C(=O)c1c-2n(CCCN2CCOCC2)c(=O)c2ccccc12`
Not satisfied

API: above_or_equal(metric=TGI, cutoff=30 µM) for item `O=c1[nH]cc(OCC(F)(F)F)c(=O)[nH]1`
Satisfied

API: above_or_equal(metric=TGI, cutoff=30 µM) for item `CN(C)c1ccc(N=Nc2c([O-])ccc3ccccc23)cc1.[C-]#[O+].[C-]#[O+].[Ir]`
Satisfied

API: above_or_equal(metric=TGI, cutoff=30 µM) for item CC1=CCS(=O)(=O)C1C(O)C1=C(C)CCCC1(C)C (stereo unspecified)
Satisfied

API: above_or_equal(metric=TGI, cutoff=30 µM) for item CN(C)C(=O)C1CCC(=C2C(=O)OC(C)(C)OC2=O)N1C (stereo unspecified)
Satisfied

API: above_or_equal(metric=TGI, cutoff=30 µM) for item O=[N+]([O-])c1ccc(CS(=O)Cc2ccccc2)cc1 (stereo unspecified)
Satisfied

API: above_or_equal(metric=TGI, cutoff=30 µM) for item O=C1CCC2(c3ccccc3)Nc3cc(Cl)ccc3N12 (stereo unspecified)
Satisfied

API: above_or_equal(metric=TGI, cutoff=30 µM) for item `CN(C)CCNC(=O)c1ccc(Cl)c2c(Nc3ccc(S(N)(=O)=O)cc3)c3ccccc3nc12`
Not satisfied

API: above_or_equal(metric=TGI, cutoff=30 µM) for item `CC(C)=CC(=O)CC(=O)C(=O)Nc1ccc(Cl)c(Cl)c1`
Satisfied

API: above_or_equal(metric=TGI, cutoff=30 µM) for item C=C(C)CCC(C)N1CCC(N2CCC(C(=O)NCCc3ccccc3)CC2)CC1 (stereo unspecified)
Satisfied

API: above_or_equal(metric=TGI, cutoff=30 µM) for item `CCCCCCCC(=O)N/N=C/c1ccc(Sc2nccn2C)c([N+](=O)[O-])c1`
Not satisfied

----------
Please go through the items and note down their TGI.
Test system: HT29 colon
Experiment: NCI tumour cell line growth inhibition, 48 h
One number for each entry, in µM.

Solved entries (count: 3):
compound	tested_target	unit_string	TGI
COC(=O)[C@@]12OC[C@]34C([C@@H](O)C1O)[C@@]1(C)CC(=O)C(O)=C(C)C1C[C@H]3OC(=O)[C@H](OC(=O)CC(C)C(F)(F)F)[C@H]42 (some centres undefined)	HT29 colon	µM	0.146
Cn1cc(-c2ccc(CNc3cc(-c4cnc5cc(OCCCN6CCCC6)ccn45)ncn3)cc2)cn1	HT29 colon	µM	2.72
COC(=O)[C@]1(C)CCC[C@@]2(C)C1CCC1=C[C@@]3(C(C)C)CC[C@]12OO3 (some centres undefined)	HT29 colon	µM	29.5

Report TGI for every entry below.
1. Oc1cc(Cl)ccc1Oc1ccc(Cl)cc1Cl
2. Cn1c(COC(=O)NC2CCCCC2)c(COC(=O)NC2CCCCC2)c2ccc3cc(Cl)c(Cl)cc3c21

1. 10.2
2. 69.3

----------
System: MDA-N
Assay: NCI tumour cell line growth inhibition, 48 h
observable: TGI (µM)
Numbers only, in µM.

compound	unit_string	TGI
COc1cc(/C=C/C2=NN(c3cccc(S(=O)(=O)O)c3)C3(C2)C(Cl)C(=O)N3c2nc3ccccc3s2)ccc1O (centres undefined)	µM	60.3

Next, consider the following compound.
Give reported TGI value for CC1CC[C@@]2(OC1)OC1C[C@H]3[C@@H]4CC[C@H]5CC(OC6OC(CO)C(OC7OC(CO)C(O)C(O)C7O)C(O)C6O)CCC5(C)[C@H]4CCC3(C)C1[C@@H]2C (some centres undefined)
16.3

----------
Please go through the items and note down their TGI.
Test system: RPMI-8226 leukemia
Assay: NCI tumour cell line growth inhibition, 48 h

Solved entries (count: 5):
compound	assay_result
C1=NCCOCCN=Cc2ccccc2OCc2cccc(n2)COc2ccccc21	14 µM
O=[N+]([O-])/C(C(Cl)=C(Cl)Cl)=C1/OCCS1	66.2 µM
CC1=NN(C(=O)c2ccc(Cl)cc2)C(=O)/C1=C/c1cccc([N+](=O)[O-])c1	> 100 µM
O=C1C=CC(=O)c2c(O)c(N[C@@H](Cc3ccccc3)C(=O)OCc3ccccc3)c(Cl)c(O)c21	> 10 µM
COC(=O)[C@@]12OC[C@]34C([C@@H](O)C1O)[C@@]1(C)CC(=O)C(O)=C(C)C1C[C@H]3OC(=O)[C@H](OC(=O)CC(C)C(F)(F)F)[C@H]42 (some centres undefined)	0.0512 µM

Report TGI for every entry below.
1. COC1OC(COC(=O)NCCCCC(=O)C(F)(F)F)C(O)C(O)C1O (centres undefined)
2. COc1ccc(/C=C(\NC(=O)c2ccccc2)C(=O)NN(C)c2ccnc3cc(Cl)ccc23)cc1OC
3. CC(=O)Oc1ccccc1C(=O)C1c2cccc(O)c2C(=O)c2c(O)cccc21
4. COc1ccc(C2NC3=C(CCCC3)C3(C#N)C(=O)N=C(N)C23C#N)cc1 (centres undefined)
5. COc1ccc(COCC(Cn2ccnc2)OCc2ccc(C(=O)O)cc2)cc1 (centres undefined)

> 100 µM
45.3 µM
2.48 µM
> 100 µM
> 100 µM

Report TGI for every entry below.
1. O=C1c2ccccc2C(=O)C1C(c1ccc([N+](=O)[O-])cc1)C1C(=O)c2ccccc2C1=O
2. COc1ccccc1-c1c(C)nn2c(NCc3ccccn3)cc(C)nc12
3. O=c1[nH]cc(OCC(F)(F)F)c(=O)[nH]1

1. > 100 µM
2. > 50 µM
3. > 100 µM

Report TGI for every entry below.
1. CCC1CN2CCc3cc(OC)c(OC)cc3C2CC1CC1c2cc(OC)c(OC)cc2CCN1C(=O)CNC(=O)OC(C)(C)C (centres undefined)
2. C=C[C@]1(C)C=C2C(=O)[C@@]3(O)OC[C@@]4(CCCC(C)(C)C43O)C2(O)C(O)C1 (some centres undefined)
3. OC(c1ccccc1)(c1ccccc1)c1cccnc1
4. COc1cc2c(c(OC)c1OC)C(=O)[C@H]1OC(=O)N[C@@H]21
5. CSc1c(C(=O)Nc2ccc(Cl)cc2)c(N)[nH]c(=O)c1C#N
6. COC(=O)[C@@H]1CCCN1C(=O)[C@@H]1CCCN1C(=O)[C@@H](Cc1c[nH]c2ccccc12)NC(=S)Nc1cc(C(F)(F)F)cc(C(F)(F)F)c1

1. 48.6 µM
2. > 100 µM
3. > 100 µM
4. > 100 µM
5. > 100 µM
6. > 100 µM

----------
System: SK-MEL-28 melanoma
Assay: NCI tumour cell line growth inhibition, 48 h
Please go through the items and note down their TGI.

Solved entries (count: 2):
molecule	assay_result
CN1C(=O)C(O)CC1c1cccc(F)c1 (centres undefined)	> 100 µM
CCOC(CCCN1CCC2(CC1)C(=O)N(C)CN2c1ccccc1)(OCC)c1ccc(F)cc1	30.5 µM

Report TGI for every entry below.
1. O=C1C=CC(=O)c2c(O)c(N[C@@H](Cc3ccccc3)C(=O)OCc3ccccc3)c(Cl)c(O)c21
2. COc1ccc(-c2c(C#N)c(S)n(C3OC(CO)C(O)C(O)C3O)c(=O)c2C#N)cc1 (centres undefined)
3. O=C(O)c1cc2c(s1)C(=O)c1sccc1C2=O
4. CC1OC(c2ccccc2)=CC(OCc2ccccc2)[C@H]1OCc1ccccc1 (some centres undefined)
5. NC(N)=NC(N)=Nc1c(F)c(F)c(F)c(F)c1F
6. CCCCCCCCCCCC1N=C(N)NC(CCCO)=C1C(=O)OC (centres undefined)
7. O=Cc1cc2c(o1)C(=O)c1ccccc1C2=O

1. > 10 µM
2. > 100 µM
3. 3.45 µM
4. > 10 µM
5. > 100 µM
6. 12.1 µM
7. 1.08 µM

----------
System: NCI-H23 lung
Experiment: NCI tumour cell line growth inhibition, 48 h
Please go through the items and note down their TGI.

Solved entries (count: 5):
molecule	TGI
C=CCc1ccc(O)c(-c2cc(C3Oc4c(-c5cc(CC=C)ccc5O)cc(O)cc4[C@@H]3CO)ccc2O)c1 (stereo partly specified)	76.4 µM
CC1=CCS(=O)(=O)C1C(O)C1=C(C)CCCC1(C)C (stereo unspecified)	> 100 µM
OC(c1ccccc1)(c1ccccc1)c1cccnc1	> 100 µM
CN(C)c1ccc(C(N)=O)cn1	> 100 µM
CC1=CC(=O)C(C(C)=Nc2ccccc2Cl)C(=O)O1 (stereo unspecified)	> 100 µM

Next, consider the following molecule.
Give reported TGI value for `CO[C@@H](c1ccccc1)[C@H](O)[C@](O)(c1ccccc1)P(=O)(OC)OC`
> 100 µM

----------
System: PC-3 prostate
Experiment: NCI tumour cell line growth inhibition, 48 h
Please go through the items and note down their TGI.

Solved entries (count: 5):
molecule	TGI
O=C(O)C/C(=C\c1ccccc1)C(=O)O	> 100 µM
Cc1cc(N2CCCC2)nc(N(CCCNc2ccnc3cc(Cl)ccc23)Cc2ccc3c(c2)OCO3)n1	12 µM
Nc1nnc(-c2ccco2)c(-c2ccco2)n1	> 100 µM
CCc1cc2c(cc1CCCC(=O)O)CC1(Cc3ccc(C(=O)O)cc3C1)C2 (centres undefined)	> 100 µM
O=[N+]([O-])c1ccc(N=NN2CCCC2)cc1	> 100 µM

Report TGI for every entry below.
1. Clc1ncnc2c1nc(C#Cc1ccccc1)n2Cc1ccccc1
2. CC(C)(C)OC(=O)CN1CCNCCN(CC(=O)OC(C)(C)C)CC1
3. C/C1=C\CC[C@@](C)(O)[C@@H]2CC3[C@@H](OC(=O)C34CC4)[C@@H](O2)[C@H](C)CCC1 (some centres undefined)
4. O=c1oc2ccc(Cl)cc2c(=O)n1-c1ccc(I)cc1F
5. COc1ccc2c(c1)nc(N)c1c3cccnc3cn21

1. > 100 µM
2. > 100 µM
3. 44.6 µM
4. 6.92 µM
5. 27.7 µM

Report TGI for every entry below.
1. CCN1C(=O)N(CC)C2C1NN=c1s/c(=C3\C(=O)N(C)c4ccccc43)c(=O)n12 (centres undefined)
2. NC1=Nc2ccccc2Sc2nnc(-c3ccc(Cl)cc3)n21
3. COC(=O)[C@@H]1CCCN1C(=O)[C@@H]1CCCN1C(=O)[C@@H](Cc1c[nH]c2ccccc12)NC(=S)Nc1cc(C(F)(F)F)cc(C(F)(F)F)c1
4. COc1ccc(/C=C2\CCCC3=C2NC(C)=NC3c2ccc(OC)c(OC)c2)cc1OC (centres undefined)
5. C[C@H](CSC(=O)c1ccccc1)C(=O)N1c2ccccc2C[C@H]1C(=O)O
6. CC(C)CNC(=O)Cn1c2c(c3ccccc31)CCCC2
7. S=c1ssc(Sc2ccccn2)c1Cl

> 100 µM
> 100 µM
24.9 µM
> 100 µM
> 100 µM
> 100 µM
24.2 µM

Report TGI for every entry below.
1. Fc1ccc(Nc2nc(NCCNc3ccnc4cc(Cl)ccc34)nc(N3CCOCC3)n2)cc1
2. NC1CNC(=O)c2cscc21 (centres undefined)
3. CC1CC[C@@]2(OC1)OC1C[C@H]3[C@@H]4CC[C@H]5CC(OC6OC(CO)C(OC7OC(CO)C(O)C(O)C7O)C(O)C6O)CCC5(C)[C@H]4CCC3(C)C1[C@@H]2C (some centres undefined)

1. 18.5 µM
2. > 100 µM
3. 15.1 µM

Report TGI for every entry below.
1. COc1ccc(C2NC3=C(CCCC3)C3(C#N)C(=O)N=C(N)C23C#N)cc1 (centres undefined)
2. Cc1ccc2c(c1)ncn2-c1ncnc2c1CC(C)c1ccccc1N2C (centres undefined)

1. > 100 µM
2. 17.7 µM

Report TGI for every entry below.
1. Cc1nnc2sc(-c3ccc(-c4ccccc4Cl)o3)nn12
2. N#Cc1ccc(OCc2ccc3nc(-c4ccccc4)c(Cl)nc3c2)cc1

["> 100 µM", "> 100 µM"]
